- protocolText: Growth inhibition of human WI-38 cells incubated for 72 hrs by MTT assay
- Type: toxicity, cell-based
quantityName: IC50 at 72 h (µM)
Please respond with the number in µM and leave the unit unwritten.

Query: Determine from records and report IC50 at 72 h for CCCCC/C=C/C=C/[C@H]1OC(=O)C[C@@H]2O[C@H](C[C@H](O)C[C@H](C)C[C@@H](O)C1(C)C)C[C@H](O[C@@H]1OC[C@@H](OC)[C@H](O)[C@H]1O)C2(C)C
Result: 49

Query: Determine from records and report IC50 at 72 h for C=CCCC/C=C/C=C/[C@H]1OC(=O)C[C@@H]2O[C@H](C[C@H](O)C[C@H](C)C[C@@H](O)C1(C)C)C[C@H](O[C@@H]1OC[C@@H](OC)[C@H](OC)[C@H]1O)C2(C)C
Result: 55

---

- protocolText: Selectivity ratio of IC50 for cytotoxicity against human WI-38 cells to IC50 for antitrypanosomal activity against Trypanosoma brucei rhodesiense IL-1501
- Format: toxicity, cell-based
Field: selectivity ratio. Provide a value for each of the compounds that follow.

Query: Determine from records and report selectivity ratio for C=CCCC/C=C/C=C/[C@H]1OC(=O)C[C@@H]2O[C@H](C[C@H](O)C[C@H](C)C[C@@H](O)C1(C)C)C[C@H](O[C@@H]1OC[C@@H](OC)[C@H](O)[C@H]1O)C2(C)C
Result: > 15

Query: Determine from records and report selectivity ratio for C=CCCC/C=C/C=C/[C@H]1OC(=O)C[C@@H]2O[C@H](C[C@H](O)C[C@H](C)C[C@@H](O)C1(C)C)C[C@H](O[C@@H]1OC[C@@H](OC)[C@H](OC)[C@H]1O)C2(C)C
Result: 5

Query: Determine from records and report selectivity ratio for C#CCCC/C=C/C=C/[C@H]1OC(=O)C[C@@H]2O[C@H](C[C@H](O)C[C@H](C)C[C@@H](O)C1(C)C)C[C@H](O[C@@H]1OC[C@@H](OC)[C@H](OC)[C@H]1O)C2(C)C
Result: > 15
